Reference source for all entries: ChEMBL document CHEMBL1201862

Tested on: RXF 393
Assay: NCI tumour cell line growth inhibition, 48 h
The source made the active and inactive calls. Cut-off read from the data, not from the text of the source: active = GI50 up to about 1.1 µM and inactive = higher.
Please go through the items and note down their GI50.

Query (compound): CC1(c2ccc(Cl)cc2)N=C(NCCO)c2ccccc21 (stereo unspecified) ; field requested: GI50 16.3 µM (inactive)

Recorded GI50 for CC(=O)C(=C(I)I)c1ccccc1 , please? 20 µM (inactive)

Given the entry NC(=O)N1N=C2c3ccccc3CC[C@@H]2C1c1ccccc1 (stereo partly specified) , report its measured GI50. > 100 µM (inactive)

I am curious: what GI50 value has been reported for Cc1ccc(NC(=O)SCCC(=O)O)cc1 ? > 100 µM (inactive)

Name the reported GI50 value associated with the compound O=C1c2ccccc2-c2nnc(-c3ccc(Cl)cc3)cc21 > 10 µM (inactive)

Fill in: GI50 of NCCC1([N+](=O)[O-])C=CN=CC1 (stereo unspecified) is ___ > 100 µM (inactive)

Quick one: GI50 for O=C1c2ccc3cc(CCl)cc(O)c3c2C(=O)c2cccc(O)c21 ? 2.55 µM (inactive)

Can you look up the measured GI50 of CC(C)(C)c1ccc2c(c1)OCc1n[nH]c(n1)COc1cc(C(C)(C)C)ccc1OCCOCCO2 for me? 1.62 µM (inactive)

Could you tell me which GI50 is on file for O=[N+]([O-])c1ccc(/C=C/c2ccc(/N=N/c3ccc(/C=C/c4ccc([N+](=O)[O-])cc4S(=O)(=O)O)c(S(=O)(=O)O)c3)cc2S(=O)(=O)O)c(S(=O)(=O)O)c1 ? > 100 µM (inactive)

Item O=S1(=O)OCCCOS(=O)(=O)C1Br has what recorded GI50? > 100 µM (inactive)

Need GI50 of COc1cccc(/C=C2/Sc3scc(-c4ccccc4)[n+]3C2=O)c1O , thanks. 14.4 µM (inactive)

###

System: DU-145
Test: NCI tumour cell line growth inhibition, 48 h
Calls of active or inactive are those of the source. Rule as the data show it: active = GI50 up to about 1.1 µM and inactive = higher.
measure: GI50

GET /values?readout=GI50&item= O=C1/C(=C\c2ccccc2)c2ccccc2N1Cc1ccccc1 12.4 µM (inactive)

Fill in: GI50 of COc1ccc(N/N=C/C2=CC(C)(C)C(C#N)(C#N)C(O)=C2C#N)cc1 is ___ 77.8 µM (inactive)

Fill in the blank: the reported GI50 of O=C1c2scnc2-c2nccc3c2c1nc1ccccc13 is ____. 1.6 µM (inactive)

Requested field: GI50. Item: COc1ccc(C2C(C=O)C(N3CCN(C)CC3)=Nc3nc4ccccc4n32)cc1 (stereo unspecified) 17.8 µM (inactive)

Consider the compound shown here: N#Cc1cccc(C2ON=C(c3ccc([N+](=O)[O-])cc3)N2C23CC4CC(CC(C4)C2)C3)c1 (stereo unspecified) What is its recorded GI50? > 100 µM (inactive)

What does the record list as GI50 for O=C1c2ccccc2-c2nnc(-c3ccc(Cl)cc3)cc21 ? > 10 µM (inactive)

GI50 for CC(=O)O[C@H]1CC[C@@]2(C)C(=CC[C@@H]3[C@@H]2CC[C@]2(C)c4c(C)n[nH]c4C[C@@H]32)C1 ? 14.2 µM (inactive)

Please look up its GI50: CC(Oc1ccccc1)C(=O)NNC(=O)OC(C)(C)C (stereo unspecified) > 100 µM (inactive)

GI50 lookup needed for Cc1ccc(C2=Nn3c(nc4sc(C)c(C)c4c3=O)SC2)cc1 , thanks. > 100 µM (inactive)

GET /values?readout=GI50&item= Cc1n[nH]c(=O)n1/N=C/c1cccc(Cl)c1 35.6 µM (inactive)

Could you share which GI50 value was measured for O=C1N=C(c2ccccc2)OC1C(=O)c1ccccc1 (stereo unspecified) ? > 100 µM (inactive)

Look up GI50: CC1(c2nc3cc(Cl)c(Cl)cc3[nH]2)CCC(CO)C(C)(C)O1 (stereo unspecified) 38 µM (inactive)

Tell me the measured GI50 of S=C1SSC2N=CC=CC12 (stereo unspecified) , please. > 100 µM (inactive)

# query: GI50 of entry CCOC(=O)N/N=C(\Cc1ccccc1)OCC > 100 µM (inactive)

Field request: GI50 | item: CSc1ccc(-c2cc(-c3nc4ccccc4[nH]3)no2)cc1 13.6 µM (inactive)

Fill in: GI50 of NCCC1CN(C(=O)OCc2ccccc2)c2ccccc21 (stereo unspecified) is ___ 17.3 µM (inactive)

What value of GI50 has been recorded for this entry: CCCCCC(=O)N[C@@H](c1ccccc1)C(O)C(=O)OC1C[C@@]2(O)C(OC(=O)c3ccccc3)C3[C@](C)(C(=O)[C@H](O)C(=C1C)C2(C)C)C(OC1OCC(O)C(O)C1O)C[C@H]1OC[C@@]31OC(C)=O (stereo partly specified) 2.88 µM (inactive)

Entry COc1ccc(OC)c(C2CCc3nc4nc(N)nc(N)c4cc3C2)c1 (stereo unspecified) : reported GI50 = ? 5.66 µM (inactive)

Form field: reported GI50 of O=C(O)/C=C/C(=O)N1Cc2cc3ccccc3nc2C1 > 100 µM (inactive)

Quick one: GI50 for C[O+]=C1C=CC(=C2SC(c3ccccc3)(c3ccccc3)c3ccccc32)C=C1.[O-][Cl+3]([O-])([O-])[O-] ? 26.2 µM (inactive)

Value lookup for GI50; key = O=C1NN=C(O)C2C3c4ccccc4C(c4ccccc43)C12 (stereo unspecified) > 100 µM (inactive)
